Provenance of the data: patent US7495104B2

test system: Bek (Homo sapiens, UniProt P21802)
Sequence (P21802 431-767 limits assumed): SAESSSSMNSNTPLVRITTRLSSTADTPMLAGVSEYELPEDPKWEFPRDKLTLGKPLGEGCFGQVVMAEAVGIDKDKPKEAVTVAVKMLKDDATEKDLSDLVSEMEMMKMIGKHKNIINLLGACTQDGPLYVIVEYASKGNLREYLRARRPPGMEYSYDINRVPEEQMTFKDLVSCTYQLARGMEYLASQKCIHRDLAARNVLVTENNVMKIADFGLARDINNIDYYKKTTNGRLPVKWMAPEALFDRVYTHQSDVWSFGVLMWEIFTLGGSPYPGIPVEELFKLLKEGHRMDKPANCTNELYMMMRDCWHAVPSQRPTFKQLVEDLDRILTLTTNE
test details: Inhibitory activity against Bek-autophosphorylation using ELISA method in OCUM-2MD3 cells
condition details: 1 hr with compound, read-out: IC50 (concentration necessary for inhibiting 50% of Bek-phosphorylation)
readout kind: IC50 (nM)
// units = nM; emit number, no label

COc1cc2c(Oc3ccc(Nc4ccc(C(C)C)cc4)cc3)ccnc2cc1OCC(=O)N1CCOCC1 [Compound 229] :: 156
COc1cc2nccc(Oc3ccc(Nc4ccc(C(C)(C)C)cc4)cc3F)c2cc1OC [Compound 18] :: 155
COc1cc2c(Oc3ccc(NC(=O)NCCC(C)(C)C)cc3)ccnc2cc1OCCCBr [Compound 147] :: 654

Missing value: IC50, Bek (Homo sapiens, UniProt P21802), entry COc1cc2c(Oc3ccc(NC(=O)NCCC(C)(C)C)c(Cl)c3)ccnc2cc1OCC1CCNCC1 [Compound 168] . Fill in? 24

Test system Bek (Homo sapiens, UniProt P21802); read-out IC50; what value for COc1cc2c(Oc3ccc(NC(=O)NCCC(C)(C)C)c(Cl)c3)ccnc2cc1OCCCN1CCC(C)CC1 [Compound 207] ? 60

* * *

test system: Bek (Homo sapiens)
test details: Inhibitory activity against Bek-autophosphorylation using ELISA method in OCUM-2MD3 cells
condition details: 1 hr with compound, read-out: IC50 (concentration necessary for inhibiting 50% of Bek-phosphorylation)
readout kind: IC50 (nM)
The response must be a number in nM with no trailing unit.

COc1cc2c(Oc3ccc(NC(=O)NCCC(C)(C)C)c(Cl)c3)ccnc2cc1OCCN1CCCCC1 :: 175
COc1cc2c(Oc3ccc(Nc4ccc(C(C)(C)C)cc4)c(F)c3)ccnc2cc1OCCN1CCOCC1 :: 159

Which measured IC50 value corresponds to COc1ccc(Nc2ccc(Oc3ccnc4cc(OC)c(OC)cc34)cc2)cc1OC ? 3340

* * *

test system: UniProt:P21802
test details: Inhibitory activity against Bek-autophosphorylation using ELISA method in OCUM-2MD3 cells
condition details: 1 hr with compound, read-out: IC50 (concentration necessary for inhibiting 50% of Bek-phosphorylation)
readout kind: IC50 (nM)
Hi! Could you send only the number? It should be in nM, unit omitted.

What IC50 appears in the records for this molecule with UniProt:P21802? COc1cc2c(Oc3ccc(Nc4ccc(C(C)(C)C)cc4)cc3Cl)ccnc2cc1OCCCN1CCC(O)CC1 [Compound 309] 211

Observed IC50 on UniProt:P21802 for CCCN1CCC(COc2cc3nccc(Oc4ccc(Nc5ccc(C(C)(C)C)cc5)cc4)c3cc2OC)CC1 [Compound 42] , please. 399

Request - read-out IC50 | tested on UniProt:P21802 | molecule COc1cc2c(Oc3ccc(Nc4ccc(C(C)(C)C)cc4)c(Cl)c3)ccnc2cc1OCCN1CCC(CO)CC1 [Compound 279] 370

Under UniProt:P21802: IC50 value of COc1cc2nccc(Oc3ccc(Nc4ccc(C(C)(C)C)cc4)cc3Cl)c2cc1OC [Compound 12] ? 285

Query IC50 on UniProt:P21802 for COc1cc2c(Oc3ccc(Nc4ccc(C(C)(C)C)cc4)cc3)ccnc2cc1OCC(O)CN1CCC(N2CCCCC2)CC1 (stereo not shown) [Compound 258] 110

* * *

test system: Bek (Homo sapiens)
test details: Inhibitory activity against Bek-autophosphorylation using ELISA method in OCUM-2MD3 cells
condition details: 1 hr with compound, read-out: IC50 (concentration necessary for inhibiting 50% of Bek-phosphorylation)
readout kind: log10 IC50 (log10 of the value in µM)
Reminder: these figures are log10 of reported IC50, in µM before transformation.

Before answering, review these 3 worked examples.
COc1cc2c(Oc3ccc(Nc4ccc(C(C)(C)C)cc4)cc3)ccnc2cc1OCCCN1C[C@@H](C)O[C@@H](C)C1 :: -0.61
COc1cc2c(Oc3ccc(NC(=O)NCCC(C)(C)C)c(F)c3)ccnc2cc1OCCCNCCO :: -1.97
CCCN(CCO)CCOc1cc2nccc(Oc3ccc(Nc4ccc(C(C)(C)C)cc4)cc3)c2cc1OC :: -0.59

log10 IC50 lookup needed for COc1cc2c(Oc3ccc(NC(=O)NCCC(C)(C)C)c(Cl)c3)ccnc2cc1OCCN1CCC(C)CC1 , thanks. -0.75

Please report the recorded log10 IC50 for COc1cc2c(Oc3ccc(Nc4ccc(C(C)(C)C)cc4)cc3)ccnc2cc1OCCN(CC(C)O)CC(C)O (stereo not drawn) . -1.26

Item CCN(CCO)CCOc1cc2nccc(Oc3ccc(NC(=O)NCCC(C)(C)C)cc3)c2cc1OC has what recorded log10 IC50? -1.74

# lookup: log10 IC50 of COc1cc2c(Oc3ccc(Nc4ccc(C(C)(C)C)cc4)cc3)ccnc2cc1OCC(O)CN1CC(C)CC(C)C1 (stereo not drawn) -1.03

State the recorded log10 IC50 for this entry: COc1cc2c(Oc3ccc(NC(=O)NCCC(C)(C)C)c(Cl)c3)ccnc2cc1OCCCN1CCC(CO)CC1 -1.96

Entry COc1cc2c(Oc3ccc(Nc4ccc(C(C)(C)C)cc4)cc3)ccnc2cc1OCCCl has what log10 IC50? -0.72

Which log10 IC50 is reported for this compound? COc1cc2nccc(Oc3ccc(NC(=O)NCCC(C)(C)C)cc3)c2cc1OCCCCN1CCOCC1 -1.62

Fill blank: measured log10 IC50 of the compound COc1cc2c(Oc3ccc(NC(=O)NCCC(C)(C)C)c(F)c3)ccnc2cc1OCCCN1CCC(O)CC1 is ____. -1.58

Which value of log10 IC50 has been reported for COc1cc2c(Oc3ccc(NC(=O)NCCC(C)(C)C)c(Cl)c3)ccnc2cc1OCCCN1CC(C)OC(C)C1 (stereo not drawn) in the records? -1.69

Give the measured log10 IC50 of COc1cc2c(Oc3ccc(NC(=O)NCCC(C)(C)C)c(Cl)c3)ccnc2cc1OCCCN1CCOCC1 [Compound 182] . -2.02
